Assay: Drug repurposing screens with cells derived from glioblastoma tumor samples (AID 1345199); note: % is set by controls: 0 for no effect and ±100 for the full control effect; nearly all actives have a fitted effect of over 40% in size
Conditions: GBM patient neurospheres viability, ATP luminescence, 48 h; at 21.2 µM (top of the series); tumour line B
Protocol: CD133+ cells were isolated from GBM patient biopsies and cultured as neurospheres. Neurospheres from four patients were used to screen the NCATS pharmaceutical collection (NPC) library of approved drugs and bioactive compounds. […] The neurospheres were incubated with drugs for 48 hours in 1536-well format, then assayed with an ATP content cell viability assay. […]
Inconclusive results are not listed.

| molecule | activity, negative = cell killing [%] |
| --- | --- |
| CN1C(C(=O)Nc2ccccn2)=C(O)c2sccc2S1(=O)=O | -11.7 |
| O=C(c1ccccc1)c1ccc2n1CCC2C(=O)O (centres undefined) | -13.1 |
| NNc1nncc2ccccc12 | -20 |
| COc1cc(OC)c(C(=O)CCCN2CCCC2)c(OC)c1 | -11.8 |
| COc1c(O)cc2c(c1O)[C@@H]1O[C@H](CO)[C@@H](O)[C@H](O)[C@H]1OC2=O | -10.4 |
| CC1Cc2ccccc2N1NC(=O)c1ccc(Cl)c(S(N)(=O)=O)c1 (centres undefined) | -2.89 |
| Cc1ccc(S(=O)(=O)NC(=O)NN2CC3CCCC3C2)cc1 (centres undefined) | -4.46 |
| COc1ccc2cc([C@H](C)C(=O)O)ccc2c1 | -16.1 |
| Cc1cc2cc3c(C)cc(=O)oc3c(C)c2o1 | -13.8 |

====

Experiment: qHTS of pediatric cancer cell lines to identify multiple opportunities for drug repurposing: Confirmatory screen for LAN-5 cells (AID 1347113); note: nearly all actives have a fitted effect of over 65% in size
Conditions: LAN-5 neuroblastoma cell viability; series mostly up to 45.9 µM
Inconclusive results are not listed. Activity calls are given as the source filed them. Calls come from the whole dose curve; as a rule, active = well fitted cell-killing curve with a large enough effect; inconclusive = small, poorly fitted or top-dose-only effect, or effect the other way; inactive = no such curve, though single readings can be large or run the other way.
Classes used: active, inactive

| molecule | category |
| --- | --- |
| CCCCc1ccc2nc(NC(=O)OC)[nH]c2c1 | active |
| Nc1ncn([C@H]2C[C@H](O)[C@@H](CO)O2)c(=O)n1 | inactive |
| O=C1c2c(O)cc(O)cc2OC(c2ccc(O)c(O)c2)C1O (stereo unspecified) | inactive |
| O=C(CCc1ccc(O)cc1)c1c(O)cc(O)cc1O | inactive |
| CN(C)c1ccc2nc3ccc(=[N+](C)C)cc-3sc2c1 | active |
| CC(C)C[C@H](NC(=O)[C@H](Cc1ccccc1)NC(=O)c1cnccn1)B(O)O | active |

====

System: HaCat
Assay: Cytotoxic Profiling of Annotated Libraries Using Quantitative High-Throughput Screening (AID 1296008); note: % is set by controls: 0 for no effect and ±100 for the full control effect; nearly all actives have a fitted effect of over 60% in size
Details: Five cell lines viability, CellTiter-Glo ATP luminescence, 48-72 h; hits give low values
Results filed as inconclusive are left out.

| molecule | readout_unit | max response |
| --- | --- | --- |
| Cc1cc2c(s1)Nc1ccccc1N=C2N1CCN(C)CC1 | % | -13.9 |
| Cc1nc(-c2ccc(OCC(C)C)c(C#N)c2)sc1C(=O)O | % | 0.712 |
| C[C@]12CCC(=O)C=C1CC[C@@H]1[C@H]2[C@@H](O)C[C@@]2(C)[C@H]1CC[C@]2(O)C(=O)CO | % | -4.53 |
| C=CCc1cc(OC)c(O)c(C(=O)NCCO)c1 | % | -2.64 |
| CC1Cc2ccccc2N1NC(=O)c1ccc(Cl)c(S(N)(=O)=O)c1 (configuration not stated) | % | -11.1 |
| O=C1c2c(O)cc(O)cc2OC(c2ccc(O)c(O)c2)C1O (configuration not stated) | % | 2.31 |
| Clc1ccc(C(Cn2ccnc2)OCc2c(Cl)cccc2Cl)c(Cl)c1 (configuration not stated) | % | 1.49 |
| CN(C)C(=O)[C@H](O)[C@H](Cc1ccccc1)NC(=O)c1cc2cc(Cl)ccc2[nH]1 | % | -6.71 |
| CN(c1nccc(=O)[nH]1)C1CCN(c2nc3ccccc3n2Cc2ccc(F)cc2)CC1 | % | 0.328 |
| O=C(O)c1cccnc1Nc1cccc(C(F)(F)F)c1 | % | 1.64 |
| Cc1cccc(C#Cc2ccccc2)n1 | % | -25.8 |
| CCN(CC)CCOc1ccc(Cc2ccccc2)cc1 | % | -17.2 |
| CN(C)[C@@H](CCOc1cccc2ccccc12)c1ccccc1 | % | 4.48 |
| O=C(NC(Cc1cc(=O)[nH]c2ccccc12)C(=O)O)c1ccc(Cl)cc1 (configuration not stated) | % | -8.32 |
| C[Se]CCC(N)C(=O)O (configuration not stated) | % | -19.1 |
| c1cnc2cc3c(cc2n1)C1CNCC3C1 | % | 2.53 |
| Cc1ccc(C(=O)c2cc(O)c(O)c([N+](=O)[O-])c2)cc1 | % | -18.7 |
